Origin of measurements: ChEMBL document CHEMBL1201862

Recorded IC50 for the following molecules
EXPERIMENTAL_TARGET: UniProt:P42574
Sequence (P42574 29-175 limits assumed): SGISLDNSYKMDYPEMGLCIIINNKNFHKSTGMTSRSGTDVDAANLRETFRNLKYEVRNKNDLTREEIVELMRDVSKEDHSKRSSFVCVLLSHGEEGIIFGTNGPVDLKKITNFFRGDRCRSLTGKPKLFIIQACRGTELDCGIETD
Sequence (P42574 176-277 limits assumed): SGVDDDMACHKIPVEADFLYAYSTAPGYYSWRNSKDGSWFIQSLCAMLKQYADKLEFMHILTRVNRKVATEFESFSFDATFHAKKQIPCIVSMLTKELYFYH
Type: functional
The source made the active and inactive calls.
MEASURE: IC50

1) O=C(Nc1nc(=O)c2ccccc2s1)c1ccccc1 : 4.38 µM (active)
2) CCSc1nsc(NC(=O)Nc2ccccc2F)n1 : 29 µM (active)
3) O=C(Nc1ccc(Cl)cc1)Nc1nccs1 : 21.7 µM (active)
